Each recorded value in this set is attributed to the supplement of paper PMC11451515.

test system: SEM cells; assay: cell viability relative to DMSO control; higher = less cytotoxic; details: RPMI 5 mM glucose + 10% FBS; 48 h; 0.0211 µM
assay-endpoint: cell viability (%)
Numeric answer only, unit % assumed.

These solved cases illustrate the format of a correct answer.
Cc1n[nH]c(C)c1Cc1sc2c(c1C(=O)N1C[C@H](O)CO1)c(=O)n(C)c(=O)n2CC(C)C: 122
COC(=O)Nc1nc2cc(Sc3ccccc3)ccc2[nH]1: 129

# ---- query compound ----
The compound listed as CN(C)Cc1cccc(N/C(=C2\C(=O)Nc3cc(C(=O)N(C)C)ccc32)c2ccccc2)c1 has a reported cell viability of 104
